Conditions: 298.15 K; 100 kPa; Liquid; Vibrating tube method
metric: mass density (kg/m3)

C=CC(C)(CCC=C(C)C)OC(C)=O (stereo unspecified) [linalool acetate] | 898.6
C=CCc1ccc(O)c(OC)c1 [2-hydroxy-5-allylanisole] | 1062
C=C(C)[C@H]1CC=C(C)CC1 [(R)-1-methyl-4-(1-methylethenyl)cyclohexene] | 839.1
CCO | 785.1
C=CC(C)(O)CCC=C(C)C (stereo unspecified) | 857.3
C=CCc1ccc(OC)c(OC)c1 | 1031

----------
Conditions: 298.15 K; 100 kPa; Liquid; Falling or rolling sphere viscometry
metric: viscosity (mPa·s)

C=CC(C)(O)CCC=C(C)C (configuration not stated) | 4.35

(1) C=CCc1ccc(OC)c(OC)c1
(2) C=CC(C)(CCC=C(C)C)OC(C)=O (configuration not stated) [linalool acetate]
Input line: For the two items 1 and 2 , which reports the higher viscosity value? Mark your answer with the label of the selected entry.
Output line: 1

(I) C=CCc1ccc(O)c(OC)c1 [2-hydroxy-5-allylanisole]
(II) O
Input line: For this pair, I and II , which shows a numerically higher viscosity? // caller expects the label of the chosen entry
Output line: I
